// data source = BindingDB's records for doi:10.1016/j.chembiol.2010.06.007

# System: Dipeptidyl aminopeptidase 1 (Plasmodium falciparum)
# Assay Explanation: DPAP1 inhibtion was measured using DPAP1-specific fluorogenic assay. IC50 DPAP1 were determined after 30 min incubation of parasite lysates with 5 nM to 100 mM inhibitor. ki values were obtained by fitting the data to Equation 1.
Measured pIC50 by item
Just the number, please; pIC50 means minus log10 of the concentration in mol/L.

In the examples that follow, each entry is paired with its recorded pIC50.
>>> print(df.to_string())
                                   compound  readout_name  readout_number
0  CCCCC(C(=O)COc1c(F)c(F)cc(F)c1F)n1cc([C@@](C)(N)C2CCCCC2)nn1 (some centres undefined) [ML4046A]         pIC50            6.15
1  CCCCC(C(=O)COc1c(F)c(F)cc(F)c1F)n1cc(C(C)N)nn1 (centres undefined) [ML4057]         pIC50            6.15
2  CCCCC(C(=O)COc1c(F)c(F)cc(F)c1F)n1cc(C(C)(C)N)nn1 (centres undefined) [ML4066]         pIC50            5.96

Could you now consider this next compound?
Summary for this compound, CCCCC(C(=O)COc1c(F)c(F)cc(F)c1F)n1cc(C(N)(CCC)CCC)nn1 (centres undefined) [ML4124] : pIC50 is 6.15
